Parameter: Pre-emergence activity (GR80) ALOMY. Scope: all listed entries.
Tested on: ALOMY (blackgrass)
Assay: Pre-emergence herbicidal activity, cool season
Assay type: in vivo, Alopecurus myosuroides
Conditions: GR80 = lowest tested rate (300, 100, 30, 10 g/ha) with 80% or greater inhibition; approx. 14 days after treating; 18/13° C.

molecule	Pre-emergence activity (GR80) ALOMY (g/ha)
CCN(CC)C(=O)n1cnc(S(=O)(=O)C(F)(F)C(F)(F)Br)n1 [Example 4]	300
CCSC(F)(F)S(=O)(=O)c1ncn(C(=O)N(CC)CC)n1 [Example 8]	100
CCN(CC)C(=O)n1cnc(S(=O)(=O)C(F)(F)C(F)(F)SC)n1 [Example 14]	100
CCN(CC)C(=O)n1cnc(S(=O)(=O)C(F)(F)SCC(=O)OC)n1 [Example 11]	300
CCN(CC)C(=O)n1cnc(S(=O)(=O)C(F)(F)Cl)n1 [Example 3]	100
